Assay: soluble on expression in E. coli; label from the status in PepcDB or PDB records
experimentalEndpoint: soluble on expression in E. coli

• MGSDKIHHHHHHLRFIIVSGPPSAGKTAVMIHAIRHLLKDGIKVAACKIDCLKTSDDKNYRALGIPVAVGLSEYLCPDHFFVANLEEIYAWGSYYGTEVLILETAGLCHRCAPAIQGCLSICVIDNLSGIDTPQKVGPMLSTADVVLISKGDVVSQAEREVFRQRVEMVNPDAAVLSVNGLNGQGSLKLKKIIMESASVKRIEGQELRCSMPAAICSYCTGETMIGSSYQMGNVKKLDFGKF = not soluble
• MGSDKIHHHHHHMNRLRTSFQQTTGQISGHGKRNVGVLKTAFAAVADEMASDQYGTGAIIEPFEQKFADVLGMDDAVFFPSGTMAQQVALRIWSDETDNRTVAYHPLCHLEIHEQDGLKELHPIETILVGAADRLMTLDEIKALPDIACLLLELPQREIGGVAPAFSELETISRYCRERGIRLHLDGARLFEMLPYYEKTAAEIAGLFDSIYISFYKGLGGIAGAILAGPAAFCQTARIWKRRYGGDLISLYPYIVSADYYYELRKDRMGQYYEQAKQLAEQFNALPGVHTTPEVPVSNMFHLHFDGQAADISPKLEQVQEETGLGFVGYLVDKDGYCSTEISVGDAYGELDQQTRDAGFARLRQAFS = not soluble

====

Test: soluble on expression in E. coli; label from the status in PepcDB or PDB records
experimentalEndpoint: soluble on expression in E. coli

• MIRFLGNIEVRADAKGRVFIPATFRKQLQAASEERLIMRKDVFQDCLTLYPESVWNEELNELRSRLNKWNSKHQLIFRQFVSDVEVVTPDSNGRILIPKRYLQICNIRGDIRFIGIDNKIEIWAKERAEQPFMSPEEFGAALEEIMNDENRQDGER = not soluble
• MAVLYKSFQSVLEDKNHKKMFHPRVIYTANISTSQIAKEIAAYSSLSPGDVKNTLDNLVTVMGQHLQASESVSLDGFGTFRMVMKSNGKGVETSEEVSAAQASLTVRFLPNFTKNPDRTTATRSLVTGAKCVRFDRTDTPASGSGNTNKPGGGDGGEGGGEEAPDPTV = not soluble
• MSLIVRRYLKQDLCAVARLEVRSFEIGPYDKEYLREVLENASSISYIAQISDKIVGYIVAMPLNSQEIDIESIATDPDFRKRSIGTRLIARIENESKSLGYRNIILEVRKENIEAISFYSRLGFNIKEFIVNYYEEYYRGSRDAYRMVKSLSEGHHHHHH = not soluble

====

Assay: soluble on expression in E. coli; label from the status in PepcDB or PDB records
experimentalEndpoint: soluble on expression in E. coli

• MSALFEPYTLKDVTLRNRIAIPPMSQYMAEDGMINDWHHVHLAGLARGGAGLLVVEATAVAPEGRITPGCAGIWSDAHAQAFVPVVQAIKAAGSVPGIQIAHAGRKASANRPWEGDDHIAADDTRGWETIAPSAIAFGAHLPKVPREMTLDDIARVKQDFVDAARRARDAGFEWIELHFAHGYLGQSFFSEHSNKRTDAYGGSFDNRSRFLLETLAAVREVWPENLPLTARFGVLEYDGRDEQTLEESIELARRFKAGGLDLLSVSVGFTIPDTNIPWGPAFMGPIAERVRREAKLPVTSAWGFGTPQLAEAALQANQLDLVSVGRAHLADPHWAYFAAKELGVEKASWTLPAPYAHWLERYR = soluble
• GKQDRQMIVVDPRKTDTAKLADVHLQVEPHKDYELVSALRAAAKGFNIEAEQVAGVPTETIYEAVDICKNAQFGSLFFAMGVTMSRGKHRIIDNAIQFVIDMNAYTKFVLTPMRGHYNVNGFNQVSTWVTGYPYGVDFSRGYPRYNPGETASNDVLQRGDTDMMINVASDAGAHFPQKAVQHMAKIPLVCIDPHETPSSVISNIVLPPAITGLEVSGTAYRMDGVPIELRKVIKAPEGMLSDAEIMK = not soluble
• MAETKRMTVSQALVEFLGHQWTVDGDIRERTIPGMFGIFGHGNVAGIGQALKQYNVEQPELMPYYQARNEQAMVHQSVGYARMHRRRGTYASAASVGPGATNLLTGAALATTNRLPALLLPSDTFATRVADPVLQQLEQPWDIGLTVNDAFRPVSKFFDRVQRPEQLFSIALAAMRVLTDPAETGAVTIALPEDVQAEMLDVPVEFLQDREWHIRRPR = not soluble
• MTIDKLKLNTINLRNTFSNRSKPPISIITSTNKPKYFRNTIKNYTRLNYRYKELILIFNIDNIDIDYYKSYAEKIPNVMVFQLNECYSLGYCLNFGVNQSKYNYIAKMDDDDYYGPNYLTDEINAFNYTDAKIIGKCKYFTYFEDTRDLSINNYSQSYDYTNFIAGGTFLIKKELFKTYKFRDVNMSEDAGFLDDCSSHGIKIYSIDPFNYVYMRHKSLNEHTWKIPTTALKKQYFHFYKTTNYIPIVKILEHHHHHH = not soluble
• MDVIPLSLGLETMGGLVEKVIPRNTTIPVARAQDFTTFKDGQTAMSIHVMQGERELVQDCRSLARFALRGIPALPAGGAHIRVTFQVDADGLLSVTAMEKSTGVEASIQVKPSYGLTDSEIASMIKDSMSYAEQDVKARMLAEQKVEAARVLESLHGALAADAALLSAAERQVIDDAAAHLSEVAQGDDVDAIEQAIKNVDKQTQDFAARRMDQSVRRALKGHSVDE = soluble
• LNNLEELKRDIIEQFKEKNALDEGIVVMASGGKDSSTAIALAKDLGLNIEYLIHFYHRWSWDVSKKMVEKLSKKFDIPVIFYNITDELLKRTKGAKGSSICRICKNIMKDKAVDISKEKGIRIIMTGDSALEKVSGAVMNYLRDVYGEVVYNKMELTPVPQKYSKGKDKEVLFFRPLIRLACEDVLKLMDYYNIEIERAHE = not soluble

====

Assay: soluble on expression in E. coli; label from the status in PepcDB or PDB records
experimentalEndpoint: soluble on expression in E. coli

• MGSDKIHHHHHHMEKKIVYFNKPGRENTEETLRLAVERAKELGIKHLVVASSYGDTAMKALEMAEGLEVVVVTYHTGFVREGENTMPPEVEEELRKRGAKIVRQSHILSGLERSISRKLGGVSRTEAIAEALRSLFGHGLKVCVEITIMAADSGAIPIEEVVAVGGRSRGADTAVVIRPAHMNNFFDAEIKEIICMPRNKR = soluble
• IINGEDCSPHSQPWQAALVMENELFCSGVLVHPQWVLSAAHCFQNSYTIGLGLHSLEADQEPGSQMVEASLSVRHPEYNRPLLANDLMLIKLDESVSESDTIRSISIASQCPTAGNSCLVSGWGLLANGRMPTVLQCVNVSVVSEEVCSKLYDPLYHPSMFCAGGGQDQKDSCNGDSGGPLICNGYLQGLVSFGKAPCGQVGVPGVYTNLCKFTEWIEKTVQA = soluble
• MGSDKIHHHHHHMYKWHNVFQPIFQIDQNMNHKVDHYEMLLRDENDQFPNHDFFRIISTEEDNQKWIQIEEKSLKNLFSLHPNIHVNLNVEPIQFAYPSVWEFLRRIYDKYGQKVIIEITERQLQAGNIGNRQFDCAFQRINDIGFKIALDDVDSGSNSFSFVNHHVNQISVIKLSLLIFDNVSSGTTISFIDSWAAFAKEKHLDLVIEAVRSKEIAKRFAGNKHIFQQGYYWEKALKLEDIY = not soluble
• MSLKEKKLVYLNSKQYEDAYRKKSVLLNDINNINEQYFDLKNSIKDYNKSSKDFESTKRQMEDELILNKMELGTLDVVGEGVEITLDDSGNQVSASSEDANFREIRTIYQVIHDFDMRAVINDIKCSGAEAISINGQRIVSNTEIYCNAEFLLINGVKISAPFNIKAIGNKNKLKTYMLASGNYLQRLKRRSIYVNLKTVNDVKIPAFKGELRHSNIKSKEGHHHHHH = soluble
• MPQYKLTYFDLRGWAEPARQLFHLSHTPYDDIRIPMADTEGKWEKMRDKTPFGQLPVLNVDGFDIPQSAAICRYLAKKFGYAGKTPEEEAWADAVVDQFKDFSVAFKTLLFATRAGKPEEEILKIRYEIFNPARDVYFILLNRILKKSKSGYLVGDGLTWADLVIADNLHSLEKLRAIDDDDEGHQNLKKYKEKIYGTPDLEDHIATRMDTEV = not soluble
• MGSDKIHHHHHHMRISANFDGGNIETISLANPDDIQLAIRPDAGGEFYQWFNFRFEATIGKTYTLNILNAGGASYLKGWEDYQAVASYDRQTWFRLPTEYKDGKLSISVELDCEAIQIAYFTPYSYERHLDLISAVQLHPLVSTEHLGLTLDGRDMTLVKVGDDDPSKKSIWITARQHPGETMAEWLVEGLLNQLLDNDCPTSKALLDKANFYIVPNMNPDGSVRGHLRTNAVGANLNREWQTPSLERSPEVYYVVNKMHETGVDLFYDVHGDEGLPYVFLAGCEGIPNYSDKLASLQQDFVAALSLASADFQTEFGYDKDEPGKANLTVACNWVANTFKCLSNTLEMPFKDNANLADPFQGWSPERSVYFGEASLIAMRAVIDKIGQ = not soluble
